tgt: human DGKα (Homo sapiens)
Construct: TVMV protease cleavage site (C); Hexa-His (C); made in house; host or cells: Sf9 insect cells (baculovirus, Bac-to-Bac)
Sequence (P23743 with tags, fused parts or gaps): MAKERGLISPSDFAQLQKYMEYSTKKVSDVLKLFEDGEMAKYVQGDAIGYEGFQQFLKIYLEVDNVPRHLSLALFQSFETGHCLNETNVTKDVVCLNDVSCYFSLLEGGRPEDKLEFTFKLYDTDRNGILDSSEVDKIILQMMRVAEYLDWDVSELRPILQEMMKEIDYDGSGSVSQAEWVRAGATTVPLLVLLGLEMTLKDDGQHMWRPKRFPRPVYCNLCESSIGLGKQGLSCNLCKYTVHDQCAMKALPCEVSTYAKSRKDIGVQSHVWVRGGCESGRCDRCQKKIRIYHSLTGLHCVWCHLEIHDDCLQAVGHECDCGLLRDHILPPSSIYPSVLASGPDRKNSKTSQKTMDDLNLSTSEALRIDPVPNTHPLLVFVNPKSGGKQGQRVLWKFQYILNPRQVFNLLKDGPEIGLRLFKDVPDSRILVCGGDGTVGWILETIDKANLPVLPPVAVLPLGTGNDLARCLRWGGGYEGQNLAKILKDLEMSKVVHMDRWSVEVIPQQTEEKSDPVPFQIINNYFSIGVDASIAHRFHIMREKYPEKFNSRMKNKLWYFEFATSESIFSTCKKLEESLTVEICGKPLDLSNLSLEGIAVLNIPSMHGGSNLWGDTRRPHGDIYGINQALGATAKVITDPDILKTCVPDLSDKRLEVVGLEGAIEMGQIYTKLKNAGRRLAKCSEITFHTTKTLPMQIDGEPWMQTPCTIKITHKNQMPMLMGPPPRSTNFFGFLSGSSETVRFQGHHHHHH
protocol-summary: DGKα LIPGLO assay (extruded liposome substrate), in vitro DGK inhibition
Assay type: biochemical
particulars: liposome (LIPGLO) assay; read-out: DGKa LIPGLO IC50
outcome-measure: IC50 (nM)

(a) COc1ccc(C(c2cccc(F)c2)N2C[C@H](C)N(c3cc(=O)n(C)c4ccc(C#N)nc34)C[C@H]2C)nc1 (single isomer, unassigned) [Example 687]
(b) COCc1cc(F)ccc1C(C)N1C[C@H](C)N(c2cc(=O)n(C)c3ccc(C#N)nc23)C[C@H]1C (single isomer, unassigned) [Example 1314]
Lower IC50: a or b ? Field: selected label. Fill in the label of the entry you choose. a

###

tgt: human DGKζ (Homo sapiens, UniProt Q13574)
Construct: TVMV protease cleavage site (C); Hexa-His (C); made in house; host or cells: Sf9 insect cells (baculovirus, Bac-to-Bac)
Sequence (Q13574 with tags, fused parts or gaps isoform Q13574-4): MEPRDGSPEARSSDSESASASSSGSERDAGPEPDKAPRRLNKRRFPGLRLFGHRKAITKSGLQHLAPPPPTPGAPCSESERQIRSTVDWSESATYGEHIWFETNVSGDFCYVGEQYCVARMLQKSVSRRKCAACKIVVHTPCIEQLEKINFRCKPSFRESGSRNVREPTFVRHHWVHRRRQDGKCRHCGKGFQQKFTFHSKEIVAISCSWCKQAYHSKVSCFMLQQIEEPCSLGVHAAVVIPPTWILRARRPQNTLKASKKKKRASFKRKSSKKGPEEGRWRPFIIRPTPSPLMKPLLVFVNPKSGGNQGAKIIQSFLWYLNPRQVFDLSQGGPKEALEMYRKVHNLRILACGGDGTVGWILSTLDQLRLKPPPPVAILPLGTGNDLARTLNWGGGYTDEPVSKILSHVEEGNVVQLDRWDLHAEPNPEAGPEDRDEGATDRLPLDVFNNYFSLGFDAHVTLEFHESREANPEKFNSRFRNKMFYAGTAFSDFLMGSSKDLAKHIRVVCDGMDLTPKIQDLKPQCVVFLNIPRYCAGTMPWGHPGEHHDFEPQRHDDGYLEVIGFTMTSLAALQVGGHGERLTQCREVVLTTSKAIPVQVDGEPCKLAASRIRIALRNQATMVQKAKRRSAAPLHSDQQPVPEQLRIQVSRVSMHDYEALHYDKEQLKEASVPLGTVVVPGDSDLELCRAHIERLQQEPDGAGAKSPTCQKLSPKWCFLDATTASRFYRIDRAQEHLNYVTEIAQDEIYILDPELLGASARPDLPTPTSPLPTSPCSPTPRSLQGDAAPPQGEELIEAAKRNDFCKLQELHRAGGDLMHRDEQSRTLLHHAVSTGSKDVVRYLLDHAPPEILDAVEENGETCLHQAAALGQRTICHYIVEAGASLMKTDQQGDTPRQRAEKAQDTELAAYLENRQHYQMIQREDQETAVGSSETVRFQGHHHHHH
protocol-summary: DGKζ LIPGLO assay (extruded liposome substrate), in vitro DGK inhibition
Format: biochemical
particulars: DGKζ liposome (LIPGLO) assay; read-out: DGKz LIPGLO IC50
outcome-measure: IC50 (nM)

Reference set (3 entries):
Which IC50 reading was recorded for the compound Cc1ccc(C(c2cccc(F)c2)N2CCN(c3c(C#N)c(=O)n(C)c4ccc(C#N)nc34)C[C@H]2C)nc1 (single isomer, unassigned) [Example 912] ? 580

Subsequent entry: CCc1ccccc1C(c1ccc(F)cc1)N1CCN(c2c(C#N)c(=O)n(C)c3ccc(C#N)nc23)C[C@H]1C (some centres unmarked) [Example 876] 510

Subsequent entry: `C[C@@H]1CN(c2c(C#N)c(=O)n(C)c3ccc(C#N)nc23)CCN1Cc1ccc(Cl)c(Cl)c1` 5800

(A) C[C@@H]1CN(c2cc(=O)n(C)c3ccc(C#N)nc23)[C@@H](C)CN1C(c1ccc(F)cc1)c1nc(C2CCOCC2)no1 (single isomer, unassigned) [Example 740]
(B) C[C@@H]1CN(c2c(C#N)c(=O)n(C)c3ccc(C#N)nc23)CCN1C(c1ccc(F)cc1)c1cccc(F)c1 (some centres unmarked) [Example 880]
Lower IC50: A or B ? Field: selected label. Fill in the label of the entry you choose. A

###

tgt: human DGKζ (Homo sapiens)
Construct: TVMV protease cleavage site (C); Hexa-His (C); made in house; host or cells: Sf9 insect cells (baculovirus, Bac-to-Bac)
protocol-summary: DGKζ LIPGLO assay (extruded liposome substrate), in vitro DGK inhibition
Type: biochemical
particulars: liposome (LIPGLO) assay; read-out: DGKz LIPGLO IC50
outcome-measure: IC50 (µM)

Reference set (10 entries):
Which IC50 reading was recorded for the compound CC[C@H]1CN(C(C)c2ccc(F)cc2F)[C@H](CC)CN1c1cc(=O)n(C)c2ccc(C#N)nc12 (single isomer, unassigned) [Example 1056] ? 0.59

Subsequent entry: C[C@@H]1CN(c2cc(=O)n(C)c3ccc(C#N)nc23)[C@@H](C)CN1C(c1ccc(F)cc1)C1CCOCC1 (single isomer, unassigned) [Example 387] 3.1

Subsequent entry: CC[C@@H]1CN(c2cc(=O)n(C)c3ccc(C#N)nc23)[C@@H](C)CN1C(c1ccc(Cl)cc1)c1ccc(Cl)cc1 [Example 1099] 1.5

Subsequent entry: CCC(c1ccc(C2CC2)cc1F)N1C[C@H](C)N(c2cc(=O)n(C)c3ccc(C#N)nc23)C[C@H]1C (stereo partly shown) [Example 1218] 0.069

Subsequent entry: CC[C@H]1CN(C(C)c2ccc(F)cc2)[C@H](CC)CN1c1cc(=O)n(C)c2ccc(C#N)nc12 (single isomer, unassigned) [Example 1050] 0.9

Subsequent entry: CC(c1ccc(OC(F)(F)F)c(F)c1)N1C[C@H](C)N(c2cc(=O)n(C)c3ccc(C#N)nc23)C[C@H]1C (single isomer, unassigned) [Example 1205] 2.7

Subsequent entry: Cc1cccc(C)c1CN1C[C@H](C)N(c2cc(=O)n(C)c3ccc(C#N)nc23)C[C@H]1C [Example 265] 2.6

Subsequent entry: CC[C@@H]1CN(c2cc(=O)n(C)c3ccc(C#N)nc23)[C@@H](C)CN1C(C)c1ccc(F)cc1 (single isomer, unassigned) [Example 1083] 0.079

Subsequent entry: C[C@@H]1CN(c2c(C#N)c(=O)n(C)c3ccc(C#N)nc23)CCN1C(c1ccc(F)cc1)c1ccncn1 (single isomer, unassigned) [Example 313] 4.8

Subsequent entry: CC(c1ccc(OC(F)(F)F)cc1)N1C[C@@H](C)N(c2cc(=O)n(C)c3ccc(C#N)nc23)C[C@@H]1CO (single isomer, unassigned) [Example 1181] 2.5

(I) C[C@@H]1CN(c2cc(=O)n(C)c3ccc(C#N)nc23)[C@@H](C)CN1C(c1ccc(F)cc1)c1ncccc1F (single isomer, unassigned) [Example 188]
(II) Cn1c(=O)cc(N2CCN(C(c3ccc(F)cc3)c3ccc(F)cc3)C(C#N)C2)c2nc(C#N)ccc21 (single isomer, unassigned) [Example 45]
(III) C[C@@H]1CN(c2cc(=O)n(C)c3ccc(C#N)nc23)[C@@H](C)CN1C(c1ccccc1)c1ccc(OC(F)(F)F)cc1 (single isomer, unassigned) [Example 221]
(IV) CC(c1c(F)cc(F)cc1F)N1C[C@H](C)N(c2cc(=O)n(C)c3ccc(C#N)nc23)C[C@H]1C (single isomer, unassigned) [Example 488]
(V) CC[C@@H]1CN(c2cc(=O)n(C)c3ccc(C#N)nc23)[C@@H](C)CN1C(c1ccc(F)cc1)c1ccc(Cl)cc1 (stereo partly shown) [Example 1100]
Ordering criterion: IC50; begin with the maximum. Put the labels in the requested order and write them down. IV, I, II, III, V

###

tgt: human DGKζ (Homo sapiens, UniProt Q13574)
Construct: TVMV protease cleavage site (C); Hexa-His (C); made in house; host or cells: Sf9 insect cells (baculovirus, Bac-to-Bac)
protocol-summary: DGKζ LIPGLO assay (extruded liposome substrate), in vitro DGK inhibition
Type: biochemical
particulars: liposome (LIPGLO) assay; read-out: DGKz LIPGLO IC50
outcome-measure: IC50 (µM)

(P) Cn1c(=O)c(Cl)c(N2CCN(C(c3ccc(F)cc3)c3ccc(F)cc3)C(CO)C2)c2nc(C#N)ccc21 (single isomer, unassigned) [Example 100]
(Q) CCC(c1cc(OC(F)(F)F)ccc1F)N1C[C@H](C)N(c2cc(=O)n(C)c3ccc(C#N)nc23)C[C@H]1C (some centres unmarked)
(R) COCCOc1cc(C(C)N2C[C@H](C)N(c3cc(=O)n(C)c4ccc(C#N)nc34)C[C@H]2C)ccc1C#N (single isomer, unassigned) [Example 1320]
Put the above compounds in order of rising IC50, beginning with the smallest. Put the labels in the requested order and write them down. R, Q, P

(P) C[C@@H]1CN(c2c(F)c(=O)n(C)c3ccc(C#N)nc23)[C@@H](C)CN1C(c1ccc(F)cc1)c1ccccc1F (some centres unmarked) [Example 333]
(Q) C[C@@H]1CN(c2cc(=O)n(C)c3ccc(C#N)nc23)[C@@H](C)CN1C(c1ccc(O)cc1F)C(F)(F)F (some centres unmarked)
Lower IC50: P or Q ? Field: selected label. Fill in the label of the entry you choose. P

###

tgt: human DGKα (Homo sapiens)
Construct: TVMV protease cleavage site (C); Hexa-His (C); made in house; host or cells: Sf9 insect cells (baculovirus, Bac-to-Bac)
protocol-summary: DGKα LIPGLO assay (extruded liposome substrate), in vitro DGK inhibition
Type: biochemical
particulars: DGKα liposome (LIPGLO) assay; read-out: DGKa LIPGLO IC50
outcome-measure: IC50 (nM)

Reference set (3 entries):
Which IC50 reading was recorded for the molecule Cc1ccc(C(C)N2C[C@H](C)N(c3c(C#N)c(=O)n(C)c4ccc(C#N)nc34)C[C@H]2C)cc1 (single isomer, unassigned) [Example 784] ? 1200

Subsequent entry: `C[C@@H]1CN(c2c(C#N)c(=O)n(C)c3ccc(C#N)nc23)CCN1Cc1cccc(C(F)(F)F)n1` 310

Subsequent entry: `Cc1ccc(F)cc1CN1CCN(c2c(C#N)c(=O)n(C)c3ccc(C#N)nc23)C[C@H]1C` 1500

(P) CCc1noc(C(c2ccc(F)cc2)N2C[C@H](C)N(c3cc(=O)n(C)c4ccc(C#N)nc34)C[C@H]2C)n1 (single isomer, unassigned) [Example 753]
(Q) C[C@@H]1CN(c2c(C#N)c(=O)n(C)c3ccc(C#N)nc23)CCN1C(c1ccc(Cl)cc1)c1ccc2c(c1)OC(F)(F)O2 (single isomer, unassigned) [Example 941]
(R) CCc1noc(C(c2ccc(F)cc2)N2C[C@H](C)N(c3cc(=O)n(C)c4ccc(C#N)nc34)C[C@H]2C)n1 (single isomer, unassigned) [Example 754]
(S) C[C@@H]1CN(c2c(C#N)c(=O)n(C)c3ccc(C#N)nc23)CCN1C(c1ccc(F)cc1)c1ccc(C#N)cc1 (single isomer, unassigned) [Example 871]
(T) C[C@@H]1CN(c2cc(=O)n(C)c3ccc(C#N)nc23)[C@@H](C)CN1C(c1ccc(F)cc1)c1nc(C(C)(C)C)co1 (single isomer, unassigned) [Example 779]
Ordering criterion: IC50; begin with the maximum. Put the labels in the requested order and write them down. Q, S, P, T, R

(A) C[C@@H]1CN(c2c(C#N)c(=O)n(C)c3ccc(C#N)nc23)[C@@H](C)CN1C(c1ccc(F)cc1)c1ccon1 (single isomer, unassigned) [Example 850]
(B) C[C@@H]1CN(c2cc(=O)n(C)c3ccc(C#N)nc23)[C@@H](C)CN1C(c1ccc(F)cc1)c1nc(C(F)F)no1 (stereo partly drawn) [Example 743]
Exercise: compare A and B ; which one has the greater IC50? Field: selected label. Fill in the label of the entry you choose. A
(A: 510 nM, B: 120 nM)

Origin of the recorded values: patent US10669272B2
